Record form. Attribute: IC50. Fill in for each entry.
Measurement target: human PD-L1 / Human PD-1 (Homo sapiens (Human), UniProt Q9NZQ7)
Sequence (Q9NZQ7 19-239): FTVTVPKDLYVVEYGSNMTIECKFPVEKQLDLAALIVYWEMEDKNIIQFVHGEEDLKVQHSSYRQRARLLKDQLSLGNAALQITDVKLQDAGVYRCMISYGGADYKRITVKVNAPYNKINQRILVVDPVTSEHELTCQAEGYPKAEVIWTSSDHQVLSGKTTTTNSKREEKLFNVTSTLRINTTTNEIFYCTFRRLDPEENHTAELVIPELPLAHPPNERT
Protocol text: Enzyme-Linked Immunosorbent Assay (ELISA), PD-1/PD-L1 binding
Assay conditions: plate-coated human PD-L1, biotinylated human PD-1

Examples from the recorded data:
CCOc1cc(O[C@H]2CCc3c(-c4cccc(OCCCN5CCC(F)CC5)c4Cl)cccc32)c(Cl)cc1CNCC1CCC(=O)N1 (stereo partly shown) : 5 to 500 nM
Cc1c(OCCCN2CCC(F)CC2)cccc1-c1cccc2c1CC[C@@H]2Oc1cc(OCc2cc(C#N)cc(C#N)c2)c(CN[C@H]2CCC[C@H]2O)cc1Cl : < 5 nM
CC(CO)(NCc1cc(Cl)c(O[C@H]2CCc3c(-c4cccc(OCCCN5CC(O)C5)c4Cl)cccc32)cc1OCc1cncc(Cl)c1)C(=O)O (stereo partly shown) : < 5 nM
N#Cc1cncc(COc2cc(O[C@H]3CCc4c(-c5cccc(OCCCN6CCC(F)CC6)c5C#N)cccc43)c(Cl)cc2CNCC2CCC(=O)N2)c1 (stereo partly shown) : 5 to 500 nM
CCOc1cc(O[C@H]2CCc3c(-c4cccc(OCCCN5CC(O)C5)c4Cl)cccc32)c(Cl)cc1CN[C@@H]1CCCC[C@@H]1O : 5 to 500 nM

The following molecules each have a reported value; give each one's IC50.
1. N#Cc1cncc(COc2cc(O[C@H]3CCc4c(-c5cccc(OCCCN6CC7(C6)CC(F)(F)C7)c5Cl)cccc43)c(Cl)cc2CN[C@@H]2CCCC[C@@H]2O)c1
2. CCOc1cc(O[C@H]2CCc3c(-c4cccc(OCCCN5CC[C@@H](O)C5)c4C)cccc32)c(Cl)cc1CNC(CO)CO

Found:
["< 5 nM", "< 5 nM"]

====

Measurement target: human PD-L1 / Human PD-1 (Homo sapiens (Human))
Protocol text: Enzyme-Linked Immunosorbent Assay (ELISA), PD-1/PD-L1 binding
Assay conditions: plate-coated human PD-L1, biotinylated human PD-1
pIC50: −log10 of the molar value.
Readout name: pIC50

Cc1c(OCCCN2CC(C)(O)C2)cccc1-c1cccc2c1CC[C@@H]2Oc1cc(OCc2cncc(C#N)c2)c(CNCC2CCC(=O)N2)cc1Cl (some centres unmarked) : > 8.30
CCOc1cc(O[C@H]2CCc3c(-c4cccc(OCCCN5CC[C@@H](O)C5)c4C)cccc32)c(Cl)cc1CN[C@@H]1CCCC[C@@H]1O : 6.30 to 8.30
N#Cc1cncc(COc2cc(O[C@H]3CCc4c(-c5cccc(OCCCN6CCC(F)CC6)c5Cl)cccc43)c(Cl)cc2CNC[C@@H]2CCC(=O)N2)c1 : > 8.30
CCOc1cc(O[C@H]2CCc3c(-c4cccc(OCCCN5CC(O)C5)c4Cl)cccc32)c(Cl)cc1CN[C@@](C)(CO)C(=O)O : > 8.30

--- query ---
Value of pIC50 reported for the molecule CCOc1cc(O[C@H]2CCc3c(-c4cccc(OCCCN5CCC5(C)C)c4C)cccc32)c(Cl)cc1CN(C)CC(C)C(=O)OC (some centres unmarked) is 4.70 to 6.30

====

Measurement target: human PD-L1 / Human PD-1 (Homo sapiens (Human), UniProt Q9NZQ7)
Protocol text: Enzyme-Linked Immunosorbent Assay (ELISA), PD-1/PD-L1 binding
Assay conditions: plate-coated human PD-L1, biotinylated human PD-1
Readout name: IC50

Consider the worked cases shown below.
N#Cc1cncc(COc2cc(O[C@H]3CCc4c(-c5cccc(OCCCN6CCC(F)CC6)c5Cl)cccc43)c(Cl)cc2CN[C@@H]2CCCC[C@@H]2O)c1 : < 5 nM
COc1cc(O[C@H]2CCc3c(-c4cccc(OCCCN5CC(O)C5)c4Cl)cccc32)cc(OC)c1CN[C@@](C)(CO)C(=O)O : 5 to 500 nM
CN1CCC(COc2cccc(-c3cccc4c3CC[C@@H]4Oc3cc(OCc4cncc(C#N)c4)c(CN[C@H]4CCC(=O)NC4)cc3Cl)c2Cl)C1=O (stereo partly shown) : 5 to 500 nM

Lab note: measured IC50 of `CC1(O)CCN(Cc2cc(Cl)c(O[C@H]3CCc4c(-c5cccc(OCCCN6CCC(F)CC6)c5Cl)cccc43)cc2OCc2cncc(C#N)c2)CC1` was < 5 nM
